assay: Stability test: storage in nitrogen-filled sealed bottles, purity test by HPLC every month; type: physicochemical; details: Table 2, stored at 2° C. to 8° C., 1 month
We begin with a simple list: items and their reported purity by HPLC, Time (month) 1.
reported.metric: purity by HPLC, Time (month) 1

compound	measured
NC(=O)c1ccc[n+]([C@@H]2O[C@H](CO)[C@@H](O)[C@H]2O)c1.O=C(O)C[C@H](O)C(=O)O.O=C([O-])C[C@H](O)C(=O)O [Example 4, malate of NR (1:2)]	98.424
NC(=O)c1ccc[n+]([C@@H]2O[C@H](CO)[C@@H](O)[C@H]2O)c1.O=C(O)CC(O)(CC(=O)O)C(=O)O.O=C(O)CC(O)(CC(=O)O)C(=O)[O-] [Example 2, citrate of NR (1:2)]	98.492
NC(=O)c1ccc[n+]([C@@H]2O[C@H](CO)[C@@H](O)[C@H]2O)c1.O=C(O)CC(O)(CC(=O)O)C(=O)[O-] [Example 1, citrate of NR (1:1)]	98.198
